Tested on: P388 leukemia ip, CD2F1 mice, survival T/C
ASSAY EXPLANATION: NCI In Vivo Anticancer Drug Screen. Data for tumor model P388 Leukemia (intraperitoneal) in CD2F1 (CDF1) mice
STUDY CONDITIONS: endpoint: median survival time; dose: 12.5 mg/kg/injection; schedule: Q01DX009 (ip); vehicle: saline with Tween-80
Toxic doses and inconclusive results are not listed. How the source made its calls: active means survival T/C of 150% or more; inactive means T/C below 125% in these data.
Result category, one only: Yes (active), No (inactive)

Completed entries (count: 3):
Just curious, what result did CCO/C(C)=N\c1nc(C)[nH]c1C(N)=O get here?
No

O=c1c2cnc(-c3ccccc3)nc2oc2ccc3ccccc3c12 , same question.
No

C[n+]1cccc(SC2CCC3CC4CC3C2C4)c1 (stereo not given) , same question.
No

More entries:
Just curious, what result did CC(CCOc1ccc2ccc(=O)oc2c1)C1=CC(=O)C(C)(C)O1 (stereo not given) get here?
No

O=[N+]([O-])c1ccc2nc(CCl)[nH]c2c1 , same question.
No

Cc1cc(=O)[nH]c(N/N=C/c2c(O)ccc3ccccc23)n1 , same question.
No

Cc1ccccc1NCC#N , same question.
No

Cc1cc(=O)n2c3c(c4c(cc13)c(CN(C)C)cc(=O)n4C)OC2 , same question.
No

CCCCN(CCCC)CC(O)c1ccc2cc(Cl)cc(Cl)c2n1 (stereo not given) , same question.
No

Cc1c2cnccc2c(C)c2c1c1ccccc1n2CC1CO1 (stereo not given) , same question.
Yes

These entries and their values trace back to PubChem BioAssay AID330.
